# Target Under Test: Human PDE2A3 enzyme (Homo sapiens, UniProt O00408)
# Construct: generated from Sf9 cells transfected with the full-length gene; His-tag; made in house; host or cells: Sf9 insect cells
# Sequence (O00408 whole entry): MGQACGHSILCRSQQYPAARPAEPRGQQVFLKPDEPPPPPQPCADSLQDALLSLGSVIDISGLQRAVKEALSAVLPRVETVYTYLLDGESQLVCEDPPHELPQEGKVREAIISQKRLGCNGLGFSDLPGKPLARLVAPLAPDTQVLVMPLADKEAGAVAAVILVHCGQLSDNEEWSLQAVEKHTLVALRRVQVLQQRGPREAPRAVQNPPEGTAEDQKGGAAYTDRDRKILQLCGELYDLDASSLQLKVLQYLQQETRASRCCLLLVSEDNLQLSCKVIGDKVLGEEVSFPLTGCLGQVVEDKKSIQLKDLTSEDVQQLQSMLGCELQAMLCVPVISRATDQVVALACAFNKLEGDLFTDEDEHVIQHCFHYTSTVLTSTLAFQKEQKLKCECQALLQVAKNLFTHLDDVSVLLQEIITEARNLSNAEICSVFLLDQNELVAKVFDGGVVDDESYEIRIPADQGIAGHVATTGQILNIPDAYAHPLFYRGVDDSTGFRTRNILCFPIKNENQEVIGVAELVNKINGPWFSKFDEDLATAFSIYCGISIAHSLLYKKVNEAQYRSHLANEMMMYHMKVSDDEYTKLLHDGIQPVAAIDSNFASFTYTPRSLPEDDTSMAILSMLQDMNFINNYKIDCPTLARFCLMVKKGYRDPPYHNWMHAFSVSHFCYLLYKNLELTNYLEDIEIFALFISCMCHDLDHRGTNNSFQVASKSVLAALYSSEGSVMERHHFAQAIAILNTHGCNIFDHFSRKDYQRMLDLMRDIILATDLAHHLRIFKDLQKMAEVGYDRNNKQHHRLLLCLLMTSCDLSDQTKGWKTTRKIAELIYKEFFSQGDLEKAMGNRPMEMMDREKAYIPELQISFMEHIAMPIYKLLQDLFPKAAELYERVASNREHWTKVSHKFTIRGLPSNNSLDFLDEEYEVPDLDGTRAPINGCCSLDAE
# Measurement Description: PDE2A3 enzyme inhibition, SPA (Scintillation Proximity Assay)
# Format: biochemical
# Condition Description: 1 μM compound, substrate [3H] cGMP, read-out: Inhibition Rate (%) (1 μM)
# Experimental: Human PDE2A3 enzyme was generated from Sf9 cells transfected with the full-length gene. The extracted enzyme from Sf9 cells was purified by His-tag affinity column and gel filtration. The enzyme was stored at −70° C. until use. PDE activity was measured using a SPA (Scintillation Proximity Assay) (GE Healthcare). […] Inhibition rate was calculated on the basis of 0% control wells with enzyme and DMSO, and 100% control wells without enzyme.
Endpoint: inhibition at 1 µM (%)

{"Molecule": "COC[C@@H](NC(=O)N1CC(=O)Nc2ccc(-n3cccn3)nc21)c1ccc(OC(F)(F)F)c(F)c1", "Endpoint Unit": "%", "inhibition at 1 µM": 99}
{"Molecule": "COC[C@@H](NC(=O)N1CC(=O)Nc2ccc(-n3cccn3)nc21)c1ccc(OC(F)(F)F)cc1", "Endpoint Unit": "%", "inhibition at 1 µM": 99}
{"Molecule": "COc1cc2c(nc1C)N(C(=O)N[C@@H](c1ccc(OC(F)(F)F)cc1)C(C)(C)O)CC(=O)N2", "Endpoint Unit": "%", "inhibition at 1 µM": 100}
{"Molecule": "CC(C)(O)C(NC(=O)N1CC(=O)Nc2cc(C3CC3)cnc21)c1ccc(OC(F)(F)F)c(F)c1 (stereo not drawn)", "Endpoint Unit": "%", "inhibition at 1 µM": 100}
{"Molecule": "COCC(NC(=O)N1CC(=O)Nc2cc(C)cnc21)c1ccc(-n2cccn2)c(F)c1 (stereo not drawn)", "Endpoint Unit": "%", "inhibition at 1 µM": 98}
{"Molecule": "CCC(NC(=O)N1CC(=O)Nc2cc(C)cnc21)c1ccc(-n2cccn2)s1 (stereo not drawn)", "Endpoint Unit": "%", "inhibition at 1 µM": 97}
{"Molecule": "COc1nc2c(cc1C)NC(=O)CN2C(=O)N[C@@H](c1ccc(OC(F)(F)F)cc1)C(C)(C)O", "Endpoint Unit": "%", "inhibition at 1 µM": 100}
{"Molecule": "CC(C)(O)C(NC(=O)N1CC(=O)Nc2cc(C3CC3)cnc21)c1ccc(C(F)(F)F)cc1 (stereo not drawn)", "Endpoint Unit": "%", "inhibition at 1 µM": 100}
{"Molecule": "Cc1cnc2c(c1)NC(=O)CN2C(=O)NC(c1ccc(OC(F)(F)F)cc1)C1CCCO1 (stereo not drawn)", "Endpoint Unit": "%", "inhibition at 1 µM": 100}
{"Molecule": "Cc1cnc2c(c1)NC(=O)CN2C(=O)NC(c1ccc(OC(F)(F)F)c(F)c1)C(C)(C)O (stereo not drawn)", "Endpoint Unit": "%", "inhibition at 1 µM": 98}
{"Molecule": "CCC(NC(=O)N1CC(=O)Nc2ccc(OC)nc21)c1ccc(OC(F)(F)F)cc1 (stereo not drawn)", "Endpoint Unit": "%", "inhibition at 1 µM": 93}
{"Molecule": "COc1cnc2c(c1)NC(=O)CN2C(=O)NC(c1ccc(C(F)(F)F)cc1)C(C)(C)O (stereo not drawn)", "Endpoint Unit": "%", "inhibition at 1 µM": 99}
{"Molecule": "Cc1cnc2c(c1)NC(=O)CN2C(=O)NC1(c2ccc(OC(F)(F)F)cc2)CC1", "Endpoint Unit": "%", "inhibition at 1 µM": 97}
{"Molecule": "COCC(NC(=O)N1CC(=O)Nc2ccc(-c3ccn(C)n3)nc21)c1ccc(OC(F)(F)F)cc1 (stereo not drawn)", "Endpoint Unit": "%", "inhibition at 1 µM": 99}
{"Molecule": "COCC(NC(=O)N1CC(=O)Nc2cc(C)cnc21)c1ccc(-n2cccn2)cc1 (stereo not drawn)", "Endpoint Unit": "%", "inhibition at 1 µM": 97}
